Consider the following compounds and their measured log10 of IC90 readings.
# System: M. tuberculosis H37Rv growth inhibition, 7H9 media
# assay overview: M. tuberculosis growth inhibition, HTS (AID 449762);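 also: bacterial growth assessed after seven days of incubation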
# protocol conditions: measured here: IC90 growth inhibition
Records with an inconclusive call do not appear.
Short version: log10 scale, IC90, µM.

The cases that follow already have their log10 of IC90 on record.
- compound: "Cn1c2ccccc2c2cc(C(=O)NNC(=O)CCl)sc21"
  log10 of IC90: 0.59
- compound: "Cc1ccc2c(c1)C1C[N+](C)(CC(=O)c3ccc(Cl)cc3Cl)CCC1N2C(=O)c1ccc(F)cc1 (centres undefined)"
  log10 of IC90: 1.43
- compound: "CN1CCN(Cc2nc3ccccc3c(=O)n2Cc2nc(-c3ccc4ccccc4c3)cs2)CC1"
  log10 of IC90: 1.41
- compound: "CCCCCCCCCCCCCCCC[N+](C)(C)CC"
  log10 of IC90: 1.63
- compound: "CC1=NN(C(=O)c2ccc(Br)cc2)C(O)(c2ccccc2)C1 (centres undefined)"
  log10 of IC90: 1.82
- compound: "COC(=O)C(C)Oc1ccc(Cc2ncc(C(F)(F)F)cc2Cl)cc1 (centres undefined)"
  log10 of IC90: 0.76

Query: If you can, please state the reported log10 of IC90 value of O=C1Nc2ccc(Br)cc2C12NNc1ccccc1O2 (centres undefined) .
Response: 1.64

Query: If you can, please state the reported log10 of IC90 value of Cc1ccc(C(C(=O)NCC2CCCO2)N(Cc2ccccc2)C(=O)c2ccc(-c3ccccc3)[nH]2)o1 (centres undefined) .
Response: 1.55

Query: If you can, please state the reported log10 of IC90 value of "COc1cc2nc(N3CCN(c4cc(C)ccc4C)CC3)nc(N)c2cc1OC" .
Response: 1.20

###

# Test system: M. tuberculosis H37Rv growth inhibition, 7H9 media
# assay overview: M. tuberculosis growth inhibition, HTS (AID 449762);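 also: bacterial growth assessed after seven days of incubation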
# protocol conditions: measured here: IC90 growth inhibition
Results filed as inconclusive are left out.
Threshold check on IC90: strictly below 50 µM is 1.0; on or above 50 µM is 0.0.

Past entries and their recorded results:
- compound: "CC1CN(c2ccc([N+](=O)[O-])c(NCCOc3ccc(Cl)cc3)c2)CC(C)N1 (configuration not stated)"
  class name: 1.0
- compound: "CCCCOc1ccc(C(=O)N/N=C/c2ccc(OCCN3CCCCC3)c(OC)c2)cc1"
  class name: 1.0
- compound: "C(C#CCCCCCCCCC[n+]1ccccc1)#CCCCCCCCCC[n+]1ccccc1"
  class name: 1.0

Query: Confirm or reject: IC90 of "COc1cccc(/C=N/Nc2nc(Nc3ccccc3)nc(-n3nc(C)cc3C)n2)c1O" lies strictly below 50 µM
Response: 1.0

Query: Confirm or reject: IC90 of "Cc1cc(C)cc(-n2c(C)c3c(C)nnc(C)c3c2C)c1" lies strictly below 50 µM
Response: 0.0

Query: Confirm or reject: IC90 of "CCOC(=O)CSc1ccc(C(=O)Nc2ccc(OC)cc2)cn1" lies strictly below 50 µM
Response: 0.0

Query: Confirm or reject: IC90 of "CC(C)c1ccc2[nH]c(O)c(N=NC(=O)c3ccc(CSc4nncn4C)cc3)c2c1" lies strictly below 50 µM
Response: 0.0

Query: Confirm or reject: IC90 of "N#Cc1cccc2c1-c1ccccc1/C2=N/NC(N)=O" lies strictly below 50 µM
Response: 0.0

Query: Confirm or reject: IC90 of "CCOC(=O)C1CCN(C(=O)CSCc2nc(-c3ccc(OCC)cc3)oc2C)CC1" lies strictly below 50 µM
Response: 1.0

Query: Confirm or reject: IC90 of O=C(c1ccc(Cl)cc1)N1N=C(c2ccccn2)CC1(O)C(F)(F)F (configuration not stated) lies strictly below 50 µM
Response: 0.0

Query: Confirm or reject: IC90 of "COc1cc(C)ccc1OCCOc1c(C)cc(Cl)cc1Cl" lies strictly below 50 µM
Response: 0.0

Query: Confirm or reject: IC90 of "CN1C2CCC1/C(=C/c1ccccn1)C(=O)/C2=C\c1ccccn1" lies strictly below 50 µM
Response: 1.0

Query: Confirm or reject: IC90 of "O=C(c1cc2cc(Cl)ccc2[nH]1)N1CCN(Cc2ccc3c(c2)OCO3)CC1" lies strictly below 50 µM
Response: 0.0

Query: Confirm or reject: IC90 of "CCc1nnc(NC(=O)CN2CCN(c3nc(-c4ccccc4)cs3)CC2)s1" lies strictly below 50 µM
Response: 0.0

Query: Confirm or reject: IC90 of "CN1C(=O)N(C)c2ccc(C=O)c3cccc1c23" lies strictly below 50 µM
Response: 0.0

Query: Confirm or reject: IC90 of "O=C(NCC1CCN(c2ccc(S(=O)(=O)N3CCOCC3)cc2)CC1)c1ccc(Cl)cc1" lies strictly below 50 µM
Response: 0.0

Query: Confirm or reject: IC90 of "O=c1cc(CCl)nc(Cc2c(Cl)cccc2Cl)[nH]1" lies strictly below 50 µM
Response: 0.0

Query: Confirm or reject: IC90 of "Cc1ccc(Nc2nc(N)nc(CN3CCc4ccccc4C3)n2)cc1" lies strictly below 50 µM
Response: 1.0

Query: Confirm or reject: IC90 of "CCCC(=O)Nc1ccc(C(=O)/C=C/c2ccc(SC)cc2)cc1" lies strictly below 50 µM
Response: 1.0

Query: Confirm or reject: IC90 of "O=C(Nc1cccc(-c2nc3ccccc3s2)c1)c1cc(-n2cnnc2)ccc1Cl" lies strictly below 50 µM
Response: 1.0

Query: Confirm or reject: IC90 of "O=C(NC(=S)Nc1cccc2cccnc12)c1ccccc1" lies strictly below 50 µM
Response: 0.0

###

Consider the following compounds and their measured IC90 readings.
# System: M. tuberculosis H37Rv growth inhibition, 7H9 media
# assay overview: M. tuberculosis growth inhibition, HTS (AID 449762);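 also: bacterial growth assessed after seven days of incubation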
# protocol conditions: measured here: IC90 growth inhibition
Records with an inconclusive call do not appear.
Write the number in µM without appending the unit.

The cases that follow already have their IC90 on record.
- compound: "COc1ccc(OC)c(CN2CCN(C(=O)CNC(=O)c3ccc(C(C)(C)C)cc3)CC2)c1"
  IC90 [µM]: 67.8
- compound: "CC(Sc1nnc(NC2CCCCC2)s1)C(=O)Nc1ccc2c(c1)C(=O)c1ccccc1C2=O (stereo not drawn)"
  IC90 [µM]: 12.6
- compound: "Cn1nc([N+](=O)[O-])nc1Sc1ccc(C(C)(C)C)cc1"
  IC90 [µM]: 7.62
- compound: "Cc1cc(N/N=C/c2ccccc2[N+](=O)[O-])nc(-n2nc(C)cc2C)n1"
  IC90 [µM]: 4.72
- compound: "Cc1ccc(NC(=O)Cc2ccc(-c3ccccc3)cc2)nc1"
  IC90 [µM]: 61.3
- compound: "O=C(/C=C/c1ccccc1)N1CCN(CCN2C(=O)c3cccc4cccc(c34)C2=O)CC1"
  IC90 [µM]: 3.87
- compound: "Cc1c(CN2CCC(CO)(Cc3cccc(C(F)(F)F)c3)CC2)c2ccccc2n1C"
  IC90 [µM]: 28.9
- compound: "O=C1C(Cl)=C(N2CCOCC2)C(=O)N1c1cccc(Cl)c1"
  IC90 [µM]: 7.3
- compound: "O=c1cc2[nH]c3ccccc3c(=O)n2nc1-c1ccccc1"
  IC90 [µM]: 18
- compound: "CC(C)Oc1ccc(-c2nc(NCC3CCCO3)c3ccccc3n2)cc1 (stereo not drawn)"
  IC90 [µM]: 91.3

In the following, a different compound is considered.
Query: If you can, please state the reported IC90 value of "CCOC(=O)COn1c2c(c3c4no[n+]([O-])c4ccc31)CCCC2" .
Response: 5.83

###

Consider the following molecules and their measured IC90 readings.
# System: M. tuberculosis H37Rv growth inhibition, 7H9 media
# assay overview: M. tuberculosis growth inhibition, HTS (AID 449762);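 also: bacterial growth assessed after seven days of incubation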
# protocol conditions: measured here: IC90 growth inhibition
Results filed as inconclusive are left out.
Write the number in µM without appending the unit.

The cases that follow already have their IC90 on record.
- molecule: "CCNC(=S)NN=C1c2ccccc2-c2ccccc21"
  measured number: 12.7
- molecule: "Cc1ccc(C2CC(c3cccs3)=NN2C(=O)CCl)cc1 (stereo unspecified)"
  measured number: 1.39

Query: If you can, please state the reported IC90 value of "Cc1csc(NC(=O)CCCC(=O)O)c1-c1nc2ccccc2s1" .
Response: 79.6

Query: If you can, please state the reported IC90 value of "O=C(Nc1ccn(Cc2ccccc2F)n1)c1ccc(COc2ccccc2Cl)cc1" .
Response: 13.2

###

# System: M. tuberculosis H37Rv growth inhibition, 7H9 media
# assay overview: M. tuberculosis growth inhibition, HTS (AID 449762);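 also: bacterial growth assessed after seven days of incubation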
# protocol conditions: measured here: IC90 growth inhibition
Inconclusive results are not listed.
parameter measured: log10 of IC90 (log10 of the value in µM)
Short version: log10 scale, IC90, µM.

The cases that follow already have their log10 of IC90 on record.
- molecule: "CCCCCCCCn1sccc1=O"
  measured number: 0.33
- molecule: "O=C(CNC(=O)c1ccco1)OCc1ccc(C(=O)Oc2ccccc2)cc1"
  measured number: 1.21
- molecule: "C=CCN(CC=C)C(=S)NC(=O)c1ccc(-c2ccccc2)cc1"
  measured number: 1.15
- molecule: "O=C(OCc1csc(Nc2ccccc2)n1)c1ccc(Cl)cc1"
  measured number: 1.66

Query: If you can, please state the reported log10 of IC90 value of "COc1cc(C#Cc2c(-c3cncn3C)n(C)c3ccc(-c4cnc(N5CCOCC5)nc4)cc23)cc(OC)c1" .
Response: 1.71

Query: If you can, please state the reported log10 of IC90 value of "O=C(CSc1nnnn1C1CCCCC1)Nc1nc2c(s1)CCCC2" .
Response: 1.77

Query: If you can, please state the reported log10 of IC90 value of "C/C(=N\NC(=S)NCC(C)(C)C)c1cc(F)cc(F)c1O" .
Response: 0.95

Query: If you can, please state the reported log10 of IC90 value of "CCCSc1nn2c(=O)c3ccccc3nc2s1" .
Response: 1.40

Query: If you can, please state the reported log10 of IC90 value of "Oc1cccc(-c2nc3ccc4ccccc4c3c3c2CCC3)c1" .
Response: 1.43

Query: If you can, please state the reported log10 of IC90 value of "COC(=O)COc1ccc(-c2ccccc2)cc1C=O" .
Response: 1.28

Query: If you can, please state the reported log10 of IC90 value of "Nc1n[nH]c(C2CC2)c1N=Nc1ccc(Cl)cc1" .
Response: 1.61

Query: If you can, please state the reported log10 of IC90 value of "Cc1cc(N2CCN(c3ccc(C(F)(F)F)cc3[N+](=O)[O-])CC2)c2ccccc2n1" .
Response: 1.37

Query: If you can, please state the reported log10 of IC90 value of "CC/C(=C(\c1ccc(O)cc1)c1ccc(OCCN(C)C)cc1)c1ccccc1" .
Response: 1.55

Query: If you can, please state the reported log10 of IC90 value of O=C(c1cc2cc(F)ccc2[nH]1)N(Cc1cccnc1)CC1CCCN(C2CCCCC2)C1 (configuration not stated) .
Response: 1.53

Query: If you can, please state the reported log10 of IC90 value of CN(C)C(=O)C1C2NC(=S)N(c3ccc(Cl)cc3)C1(C)Oc1ccc(Cl)cc12 (configuration not stated) .
Response: 1.43

Query: If you can, please state the reported log10 of IC90 value of "Cc1ccc2c(c1)c(/C=C/c1cc[n+](C)cc1)c(C)n2C" .
Response: 0.83

Query: If you can, please state the reported log10 of IC90 value of COc1cc(C2c3cc4c(cc3C(OC3OC5COC(c6cccs6)OC5C(O)C3O)C3COC(=O)C23)OCO4)cc(OC)c1O (configuration not stated) .
Response: 1.47

Query: If you can, please state the reported log10 of IC90 value of "CC(C)(C)c1ccc(C(=O)CSc2n[nH]c(=O)[nH]c2=O)cc1" .
Response: 1.40

Query: If you can, please state the reported log10 of IC90 value of "CCOc1ccc(Nc2cc(C)nc(-n3nc(C)cc3C)n2)cc1" .
Response: 0.68

Query: If you can, please state the reported log10 of IC90 value of "Oc1cc(Nc2ccccc2)cc2cccnc12" .
Response: 1.42
